- Tested on: CCRF-CEM leukemia
- protocol: NCI-60 one-dose screen, 48 h
- cond: 10 µM unless noted
This is part of a sample that, as a whole, favours compounds with a hit. Of some 83,000 tested, about 20% had one in any assay. The source made the active and inactive calls. The calls were made as follows: active = growth percent below 10; inactive = the rest.
Pick one and only one: active, inactive

Reference set, count: 8
compound | className
CC(C)=CCC[C@H](C)c1ccc(C)c2c1OCN(CCO)C2 | inactive
CCN1CCN(Cc2ccc(NC(=O)c3nc4ccc5[nH]ncc5c4c4c3CCCC4)cc2C(F)(F)F)CC1 | active
Cc1cc(O)c(C2=NN(c3ccc(S(N)(=O)=O)cc3)C(c3ccc(Cl)cc3)C2)c(C)c1Cl (stereo unspecified) | inactive
Cc1c(-c2ccc(-c3ccccc3F)cc2)nc2ccc(F)cc2c1C(=O)O | inactive
ClCc1cccc(CSc2ncnc3c2ncn3Cc2cccc(CCl)c2)c1 | active
Cc1ccc(-c2cnc3sc4ccc(Cl)cc4n23)cc1 | inactive
OC(c1cc(-c2ccc(C(F)(F)F)cc2)nc(-c2ccc(C(F)(F)F)cc2)c1)C1CCCCN1 (stereo unspecified) | active
CN1CCN(Cc2ccc(NC(=O)c3cccc(C#Cc4cnc(N)c5ncccc45)c3F)cc2C(F)(F)F)CC1 | active

Per the records of this test, what outcome belongs to COc1cc(C2=NOC(c3cc(OC)c(OC)c(OC)c3)C2)ccc1OCCCCOc1cc2c(cc1OC)C(=O)N1CCC[C@H]1C=N2 (stereo partly specified) ?
active

Per the records of this test, what outcome belongs to CC(COC(=O)c1ccccc1)N1CC2CCC(C1)O2 (stereo unspecified) ?
inactive

Per the records of this test, what outcome belongs to O=C(Cn1nncc1CN1C(=O)CSC1=O)Nc1ccc(F)cc1 ?
inactive

Per the records of this test, what outcome belongs to COc1ccc(C2=Nn3c(nnc3-c3ccc(Cl)cc3N)SC2)cc1 ?
inactive
